target: T1, hPD-1 His-tagged (human, UniProt Q15116 25-167); test: BLI (legend: SPR), Ab on sensor
T1 construct: also called recombinant hPD-1 (AcroBio)
T1 sequence (Q15116 25-167 limits assumed): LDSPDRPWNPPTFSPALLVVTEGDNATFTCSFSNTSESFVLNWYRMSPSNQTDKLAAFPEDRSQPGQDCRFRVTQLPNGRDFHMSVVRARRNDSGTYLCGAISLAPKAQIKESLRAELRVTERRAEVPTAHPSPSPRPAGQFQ

{"columns": ["Binder", "kon / M⁻¹ s⁻¹"],
 "data": [
  ["40B20 (antibody, V domains shown, used with CH1,2,3 and corresponding CL) VH: EVQLVESGGGLVQPGGSLRLSCAASGFTFSSYSMNWVRQAPGKGLQWVSYITSSSNTMYYADSVKGRFTISRDNAKNSLYLQMNSLRDEDTAVYYCASIVGAPFDYWGQGTLVTVSS VL: EIVMTQSPATLSVSPGERATLSCRASQSVSSSLAWYQQKPGQAPRLLIYGASTRATGIPARFSGSGSGTEFTLTISSLQSEDFAAYYCQQYNNWPFTFGPGTKVDIK", 80500],
  ["20H02 (antibody, V domains shown, used with CH1,2,3 and corresponding CL) VH: EVLLVESGGGLVQPGGSLRLSCAASGFTFSSYSMNWVRQAPGKGLEWVSFISSSSPTLYYADSVKGRFTISRDNAKNSLYLQMNSLRDEDTAVYYCARQGLTPFDYWGQGTLVTVSS VL: EIVMTQSPATLSVFPGERATLSCRASQSVSSYLAWYQQKPGQAPRLLIYGASTRATGIPARVSGSGSGTEFILTISSLQSEDFAVYYCQQYNNWPYTFGQGTKLEIK", 90900],
  ["39F23 (antibody, V domains shown, used with CH1,2,3 and corresponding CL) VH: QVQLVESGGGVGQPGRSLRLSCAASGFTFSNYGMHWVRQAPGKGLEWVAVIWYDGSKKYYADSVKGRFTISRDNSKNTLYLQMNSLRVEDTAVYYCVGNSGHWGQGTLVTVSS VL: DIVMTQTPLSLPVTPGEPASISCRSSQSLLDSDDGNTYLDWYLQKPGQSPQLLIYTLSYRASGVPDRFSGSGSGTDFTLKISRVEAEDVGVYYCMQCIEFPHTFGGGTKVEIK", 244000],
  ["56H02 (antibody, V domains shown, used with CH1,2,3 and corresponding CL) VH: QVQLVQSGAEVKKPGASVKVSCKASGYTFTSYFMHWVRQAPGQGLEWMGLINPDGGNTDYAQKFQGRVTMTRDTSTSTVYMELSSLRSEDTAVYYCARDGNYYDSSGYYYPDAFDIWGQGTMVTVSS VL: SSELTQDPAVSVALGQTVRITCQGDSLRRFYASWYQQKPGQAPVIVIYGKDNRPSGTPDRFSGSTSGNTASLTITGAQAEDEADYYCNSRDSSGTHVVFGGGTKLTVL", 166000]
]}

The reported measurements were obtained from patent US20260207767A1.
